Recorded values, source paper PMC4336329.

Biological target: human ether-à-go-go-related gene (hERG) potassium channel (human)
Experiment: primary screen, population patch clamp on CHO cells stably expressing hERG; higher = less effect of the substance
Screen size: about 310,000 compounds; about 14,000 (4.5%) showed an effect of 50% or more. Effects have a minus sign here. The sample as a whole holds a higher share of strong results than the screen did.
Please enter Met where hERG current change (%, negative = inhibition) at 10uM is greater than or equal to -10%, and Not met where it is lower.

INSERT INTO results (molecule, tested_target, class_name) VALUES
  ('O=C(c1ccc(C#Cc2ccccc2)o1)N1CCN(c2ccccn2)CC1', 'human ether-à-go-go-related gene (hERG) potassium channel (human)', 'Met');

[Q] hERG current change (%, negative = inhibition) at 10uM >= -10% for `Cc1cc(C)n2nc(SCC(=O)NC(=O)c3ccccc3Cl)nc2n1` ?
[A] Met

[Q] What would you report for O=C(COc1ccccc1)OC(C(=O)c1ccccc1)c1ccccc1 (stereo not shown) ?
[A] Met

[Q] What would you report for `Cc1ccc(OCc2nc(C#N)c(NCCCn3ccnc3)o2)cc1` ?
[A] Not met

[Q] What would you report for `COc1cccc(CCN2CCC(CNS(=O)(=O)c3cc(-c4cc(C)no4)ccc3C)CC2)c1` ?
[A] Not met

[Q] What would you report for `Cc1cc(-c2ccc(C)c(S(=O)(=O)NCCN3CCC(C)CC3)c2)on1` ?
[A] Not met

[Q] What would you report for `COc1ccc(-c2cc(C)no2)cc1S(=O)(=O)NCc1cccc(C)c1` ?
[A] Not met

[Q] What would you report for `CCOC(=O)C1CCN(c2c(NCc3ccc(C(=O)NCCOC)cc3)c(=O)c2=O)CC1` ?
[A] Met

[Q] What would you report for `O=C(NC1=NCCS1)c1cc(Cl)ccc1Cl` ?
[A] Not met

----------
Examples of compounds with documented hERG current change (%, negative = inhibition) at 10uM follow.
Target: human ether-à-go-go-related gene (hERG) potassium channel (human, UniProt Q12809);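 further: peak tail current of the secondary pulse compared with the same well before compound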
Sequence (Q12809 whole entry, looked up): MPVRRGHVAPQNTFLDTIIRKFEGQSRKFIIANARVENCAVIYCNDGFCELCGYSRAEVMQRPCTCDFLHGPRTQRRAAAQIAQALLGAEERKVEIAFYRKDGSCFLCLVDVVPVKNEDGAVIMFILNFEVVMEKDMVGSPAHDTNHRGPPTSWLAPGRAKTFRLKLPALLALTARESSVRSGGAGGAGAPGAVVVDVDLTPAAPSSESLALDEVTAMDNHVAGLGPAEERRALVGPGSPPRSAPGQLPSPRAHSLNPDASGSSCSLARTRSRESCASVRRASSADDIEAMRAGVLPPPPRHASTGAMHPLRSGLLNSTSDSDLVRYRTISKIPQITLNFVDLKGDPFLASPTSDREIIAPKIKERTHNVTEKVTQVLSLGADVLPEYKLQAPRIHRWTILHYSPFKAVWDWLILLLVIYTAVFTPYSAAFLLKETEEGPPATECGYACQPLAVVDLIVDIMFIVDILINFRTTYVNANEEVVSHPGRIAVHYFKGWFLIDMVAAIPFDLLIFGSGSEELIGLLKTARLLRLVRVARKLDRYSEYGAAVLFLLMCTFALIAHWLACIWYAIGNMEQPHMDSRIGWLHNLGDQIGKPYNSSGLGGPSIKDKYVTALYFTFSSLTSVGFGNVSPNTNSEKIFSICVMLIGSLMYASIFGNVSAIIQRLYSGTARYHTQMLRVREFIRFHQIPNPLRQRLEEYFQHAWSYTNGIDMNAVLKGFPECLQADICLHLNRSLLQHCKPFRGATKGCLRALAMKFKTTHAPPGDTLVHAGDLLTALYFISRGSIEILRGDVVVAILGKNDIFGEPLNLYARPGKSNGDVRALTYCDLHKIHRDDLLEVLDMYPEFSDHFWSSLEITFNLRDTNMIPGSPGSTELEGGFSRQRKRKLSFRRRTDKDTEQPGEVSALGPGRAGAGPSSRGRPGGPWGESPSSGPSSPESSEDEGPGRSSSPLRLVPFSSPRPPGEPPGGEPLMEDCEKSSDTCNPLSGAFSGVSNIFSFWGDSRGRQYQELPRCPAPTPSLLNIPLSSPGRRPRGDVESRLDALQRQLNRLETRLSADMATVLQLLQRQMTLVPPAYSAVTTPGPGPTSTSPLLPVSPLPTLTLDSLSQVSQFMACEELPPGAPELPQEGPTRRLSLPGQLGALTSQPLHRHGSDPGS
Experiment: primary screen, population patch clamp on CHO cells stably expressing hERG; higher = less effect of the substance
Hit rate of the full screen: of about 310,000 compounds, about 14,000 (4.5%) showed an effect of 50% or more. The effect is printed as a negative number. Only a selection was taken, and strong results are over-represented in it overall.
Lab book: enter the figure in %, no units written.

INSERT INTO results (compound, result_unit, data_value) VALUES
  ('Cc1ccc(CNC(=O)CCC(=O)N2CC(C)Oc3ccccc32)cc1 (stereo not drawn)', '%', -28);

[Q] Can you share its hERG current change (%, negative = inhibition) at 10uM? I mean this compound: Cc1ccc2c(c1)N(C(=O)CCC(=O)NCCCN1CCN(C)CC1)CC(C)O2 (stereo not drawn)
[A] 9.95

[Q] What would you report for `CCN(c1ccc(OC)cc1)S(=O)(=O)c1nnc(NC(=O)C2CCCCC2)s1` ?
[A] 12.2

[Q] What would you report for `Cc1ccc(COc2cccc3c2CCN(Cc2ccc(F)cc2)C3=O)cc1` ?
[A] 6.8

[Q] What would you report for `Cc1onc(-c2c(F)cccc2Cl)c1C(=O)Nc1cccc2nsnc12` ?
[A] -20.6

[Q] What would you report for NC(=O)c1cc[n+](CC2=C(C(=O)[O-])N3C(=O)[C@@H](NC(=O)C(c4ccccc4)S(=O)(=O)[O-])[C@H]3SC2)cc1.[Na+] (stereo partly drawn) ?
[A] 20.3

[Q] What would you report for CC1CN(C(=O)CCC(=O)NCc2ccc(Cl)cc2)c2ccccc2O1 (stereo not drawn) ?
[A] -53.6

[Q] What would you report for `CCOC(=O)N1CCN(C(=O)COc2cccc3c2CCN(Cc2ccccc2C)C3=O)CC1` ?
[A] -40.7

[Q] What would you report for `C/C(=N/NC(=O)CNC(=O)c1ccccc1)c1ccc(C)cc1` ?
[A] -41.5

----------
Target: human ether-à-go-go-related gene (hERG) potassium channel (human);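 further: peak tail current of the secondary pulse compared with the same well before compound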
Test: primary screen, population patch clamp on CHO cells stably expressing hERG; higher = less effect of the substance
Hit rate of the full screen: of about 310,000 compounds, about 14,000 (4.5%) showed an effect of 50% or more. The effect is printed as a negative number. The sample holds strong results, similar compounds and a random draw of the others, so the mix is not that of the screen.
RECORDED_METRIC: hERG current change (%, negative = inhibition) at 10uM (%)
Lab book: enter the figure in %, no units written.

INSERT INTO measurements (compound, data_value) VALUES
  ('COc1ccc(CCN2CC(C(=O)NCCc3ccc(C(F)(F)F)cc3)CCC2=O)cc1 (centres unmarked)', -46.8),
  ('N#CC(C#N)C(c1ccsc1)c1c(-c2ccccc2)[nH][nH]c1=O (centres unmarked)', -3.36);

[Q] Can you share its hERG current change (%, negative = inhibition) at 10uM? I mean this compound: O=C(NCCN1CCCC1=O)C1CCC(=O)N(CCc2cccc(F)c2)C1 (centres unmarked)
[A] 9.49

[Q] What would you report for O=C(NCCc1cccs1)C1CCC(=O)N(CCc2cccc(F)c2)C1 (centres unmarked) ?
[A] -26.1

[Q] What would you report for O=C(NCCc1cccc(C(F)(F)F)c1)C1CCC(=O)N(CCc2cccc(F)c2)C1 (centres unmarked) ?
[A] -56.8

----------
Examples of compounds with documented hERG current change (%, negative = inhibition) at 10uM follow.
Biological target: human ether-à-go-go-related gene (hERG) potassium channel (human, UniProt Q12809);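 further: peak tail current of the secondary pulse compared with the same well before compound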
Assay: primary screen, population patch clamp on CHO cells stably expressing hERG; higher = less effect of the substance
Screen size: about 310,000 compounds; about 14,000 (4.5%) showed an effect of 50% or more. The effect is printed as a negative number. This is one part of a sample in which strong results are shown more often than they occur.
Lab book: enter the figure in %, no units written.

INSERT INTO measurements (compound, data_value) VALUES
  ('Cc1ccc(CN2CCN(Cc3cn[nH]c3C3CCCCC3)CC2CCO)cc1 (stereo not shown)', -62.9),
  ('CC1(C)Cc2ccccc2-c2nnc(SCC(=O)N3CCN(c4ccccc4)CC3)n21', -73.7),
  ('Cc1ccc(CN2CCN(Cc3cnc(N4CCOCC4)s3)CC2CCO)cc1 (stereo not shown)', -46.7),
  ('O=C(O)c1cn(-c2ccccc2)nc1-c1ccc(F)cc1', 23.6),
  ('Cc1ccc(CN2CCN(Cc3ccccc3)C(CCO)C2)s1 (stereo not shown)', -62.8);

[Q] Can you share its hERG current change (%, negative = inhibition) at 10uM? I mean this compound: `COc1ccccc1N1CCN(C(=O)CSc2nnc3n2C(C)(C)Cc2ccccc2-3)CC1`
[A] -37.4

[Q] What would you report for `CC(=O)NCCC(=O)N(Cc1ccccc1)c1nc2c(C)cccc2s1` ?
[A] -57.4

[Q] What would you report for CC(C)=CCN1CCN(Cc2ccc(C)s2)CC1CCO (stereo not shown) ?
[A] -16.1

[Q] What would you report for Cc1cccn2c(CN(C)C3CCOC3)c(C(=O)N3CCCCC3)nc12 (stereo not shown) ?
[A] 32.3

[Q] What would you report for Cc1ccc(CN2CCN(Cc3cnc(C)[nH]3)CC2CCO)cc1 (stereo not shown) ?
[A] 10.8

----------
Biological target: human ether-à-go-go-related gene (hERG) potassium channel (human);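 further: peak tail current of the secondary pulse compared with the same well before compound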
Assay: primary screen, population patch clamp on CHO cells stably expressing hERG; higher = less effect of the substance
Among all 310,000 compounds or so, about 14,000 (4.5%) showed an effect of 50% or more. Effects have a minus sign here. The list comes from a sample in which strong results are over-represented; it also holds close analogues and randomly drawn compounds.
Examples of molecules with documented hERG current change (%, negative = inhibition) at 10uM follow.
Lab book: enter the figure in %, no units written.

INSERT INTO results (cpd_smiles, data_value) VALUES
  ('C=CCn1c(SCCN2CCOCC2)nc2c1c(=O)[nH]c(=O)n2C', 8.38),
  ('CCCCCCn1c(SCCN2CCOCC2)nc2c1c(=O)[nH]c(=O)n2C', -74.6),
  ('COCCn1c(SCCN2CCOCC2)nc2c1c(=O)[nH]c(=O)n2C', 14.2),
  ('CCN(Cc1cccs1)C(=O)c1cccc(S(=O)(=O)N2CCN(C)CC2)c1', -14.1),
  ('O=C(C[n+]1cc(Br)cc2ccccc21)c1ccc(Cl)cc1.[Br-]', -49.8),
  ('C=C(C)Cn1c(SCCN2CCOCC2)nc2c1c(=O)[nH]c(=O)n2C', -4.61),
  ('COc1ccc(C(=O)C[n+]2cc(Br)cc3ccccc32)cc1[N+](=O)[O-].[Br-]', -66.3),
  ('O=C(C[n+]1cc(Br)cc2ccccc21)c1ccc(Br)cc1.[Br-]', -83.3),
  ('CCCCCn1c(SCCN2CCOCC2)nc2c1c(=O)[nH]c(=O)n2C', -66.5);

[Q] Can you share its hERG current change (%, negative = inhibition) at 10uM? I mean this molecule: `O=C(c1ccc(S(=O)(=O)N2CCOCC2)cc1)N(Cc1ccco1)Cc1cccs1`
[A] -44.5
